ASSAY_COMMENT: qHTS Assay for Lipid Storage Modulators in Drosophila S3 Cells;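 as to cell number change: cells counted by Cell Tracker Red CMTPX staining in the red channel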
APPLIED_CONDITIONS: BODIPY lipid droplet fluorescence, 18-24 h, cells fed with added oleic acid; measured here: cell count max response
In all, about 320,000 compounds went through this assay and about 2,100 (0.66%) were called active. Roughly 53% stayed inconclusive and do not appear here. Shown is part of a subset that was picked to be rich in actives.
ATTRIBUTE_MEASURED: cell number change

Illustrative cases are given below, each with its answer.
STRUCTURE_NOTATION	cell number change
COc1ccc(CNC(=O)c2ccc(Cl)c(S(=O)(=O)N3CCOCC3)c2)cc1OC	-21%
CN(C(=O)c1ccc(F)c(S(=O)(=O)N2CCOCC2)c1)C1CCCCC1	0.139%
COc1ccc(C(=O)N2CCCC2)cc1S(=O)(=O)N1CCOCC1	9.79%

**Query** Give the reported value of cell number change for this record: COc1ccc(C(=O)OCc2ccc(C)cc2)cc1S(=O)(=O)N1CCOCC1
**Result** 0.435%

**Query** Look up cell number change of O=C(NCc1cccnc1)c1ccc(Cl)c(S(=O)(=O)N2CCOCC2)c1 and report it.
**Result** -4.25%

* * *

ASSAY_COMMENT: qHTS Assay for Lipid Storage Modulators in Drosophila S3 Cells; also: potency is read from the fitted curve at half-maximal effect
APPLIED_CONDITIONS: BODIPY lipid droplet fluorescence, 18-24 h, cells fed with added oleic acid; series mostly up to 46.1 µM
In all, about 320,000 compounds went through this assay and about 2,100 (0.66%) were called active. Not shown: some 53% with an inconclusive outcome. The full list was thinned out, with actives kept by preference.
ATTRIBUTE_MEASURED: Potency

Answered examples (8):
COMPOUND	Potency
Cc1cc(-n2nc(C)cc2C)n2nc(C)c(-c3ccc(Cl)cc3)c2n1	inactive
CCOC(=O)Nc1ccc(S(=O)(=O)N2CCC(C)CC2)cc1	inactive
CCS(=O)(=O)c1ncc(Cl)c(C(=O)Nc2ccc(S(=O)(=O)N3CCCC(C)C3)cc2)n1 (stereo unspecified)	146 nM (active)
CC1CCCN(S(=O)(=O)c2ccc(NC(=O)CNC3CCCC3)cc2)C1 (stereo unspecified)	inactive
CNC(=S)NNC(=O)Cn1ccc(C)n1	inactive
CC1CCCN(S(=O)(=O)c2ccc(NC(=O)CN3CCCCC3)cc2)C1 (stereo unspecified)	inactive
O=C(Cn1cnc2ccccc2c1=O)NCCC(=O)Nc1ccccc1C(F)(F)F	65.1 nM (active)
COCCCNC(=O)CC(NS(=O)(=O)c1ccc(Cl)cc1)c1ccco1 (stereo unspecified)	32600 nM (active)

**Query** Return the recorded Potency value; entry: CC(=O)c1c(C)[nH]c(C(=O)Nc2ccccn2)c1C
**Result** 29100 nM (active)

**Query** For the compound CC(=O)c1c(C)[nH]c(C(=O)Nc2nccs2)c1C , give its measured Potency value.
**Result** inactive

**Query** Output Potency of CCS(=O)(=O)c1ncc(Cl)c(C(=O)Nc2ccc(S(=O)(=O)N3CCC(C)CC3)cc2)n1
**Result** 1300 nM (active)

* * *

ASSAY_COMMENT: qHTS Assay for Lipid Storage Modulators in Drosophila S3 Cells;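 as to cell number change: cells counted by Cell Tracker Red CMTPX staining in the red channel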
APPLIED_CONDITIONS: BODIPY lipid droplet fluorescence, 18-24 h, cells fed with added oleic acid; measured here: cell count max response
About 2,100 (0.66%) of roughly 320,000 compounds were called active. About 53% were inconclusive and are not listed. For the sample, actives were picked, then their nearest neighbours and some compounds at random.
ATTRIBUTE_MEASURED: cell number change (%)
Report only the number, with the unit % understood.

**Query** Give a short answer stating reported cell number change for COc1ccc(OC)c(NC(=O)CCCc2ccccc2)c1 .
**Result** 8.01

**Query** Check the records and state cell number change for COc1ccc(-n2c(=O)c(CCC(=O)N(C)Cc3ccccc3C)nc3ccccc32)cc1
**Result** 24.8

**Query** Give the measured cell number change for Cc1cccc(-c2noc(CN(C(=O)C34CC5CC(CC(C5)C3)C4)C(C)C)n2)c1
**Result** 15.9

**Query** Output cell number change of COc1ccc(Cl)cc1NC(=O)CN1CCN(Cc2ccccc2)CC1
**Result** 1.46

**Query** Fill in cell number change for record COc1ccc(OC)c(NC(=O)CCN2C(=O)c3ccccc3C2=O)c1
**Result** 23.6

* * *

ASSAY_COMMENT: qHTS Assay for Lipid Storage Modulators in Drosophila S3 Cells;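 as to cell number change: cells counted by Cell Tracker Red CMTPX staining in the red channel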
APPLIED_CONDITIONS: BODIPY lipid droplet fluorescence, 18-24 h, cells fed with added oleic acid; measured here: cell count max response
Among all 320,000 compounds or so, about 2,100 (0.66%) were called active. Not shown: some 53% with an inconclusive outcome. Shown is part of a subset that was picked to be rich in actives.
ATTRIBUTE_MEASURED: cell number change

# count of solved cases: 10
COMPOUND	cell number change
CC1CCCCC1NC(=O)CN1C(=O)NC(Cc2ccccc2)(Cc2ccccc2)C1=O (stereo unspecified)	27.7%
COc1ccc([C@H]2CC(=O)C=C(c3ccc4c(c3)OCO4)C2)cc1	2.65%
CC(=O)N1CC2(NC(=O)c3ccccc3N2)c2ccccc21 (stereo unspecified)	1.06%
Nn1cc(-c2ccccc2)nc1SCC(=O)NCCN1C(=O)CSC1=O	-20.3%
CC(C)Nc1nc(SC(C)C(=O)Nc2ccccc2)nc(N(C)C)n1 (stereo unspecified)	-27.6%
CCCCS(=O)(=O)N1CCCC(C(=O)NCCc2ccccc2)C1 (stereo unspecified)	-7.87%
CC(Sc1nc(N2CCOCC2)nc(N2CCOCC2)n1)C(=O)Nc1ccccc1 (stereo unspecified)	-7.21%
CCS(=O)(=O)N1CCCC(C(=O)NCCc2ccccc2)C1 (stereo unspecified)	-14.3%
CN=Cc1nc(-c2ccccc2)oc1O	3.36%
COc1ccc(NC(=O)CN(C)C(=O)CSCc2ccc(C)cc2)cc1	-11%

**Query** Provide measured cell number change value, entry: CCn1c(=O)c2ccccc2n(CC(=O)NCCC2=CCCCC2)c1=O
**Result** 25.4%

* * *

ASSAY_COMMENT: qHTS Assay for Lipid Storage Modulators in Drosophila S3 Cells
APPLIED_CONDITIONS: BODIPY lipid droplet fluorescence, 18-24 h, cells fed with added oleic acid; series mostly up to 46.1 µM
Description: NIH Molecular Libraries Probe Production Centers Network [MLPCN] NIH Chemical Genomics Center [NCGC] […] Triacsin C (Sigma-Aldrich T-4540), an inhibitor of long-chain fatty acyl CoA synthetase that blocks synthesis of triglycerides, was used as a positive control for lipid under-storage. […] Fluorescence was detected by excitation of the fluorophores with a 488-nm laser on an Acumen Explorer (TTP Lab Tech). […] Cells were detected using channel 3 (575-640 nm) with 5-um width and 100-um depth filters. […]
About 2,100 (0.66%) of roughly 320,000 compounds were called active. About 53% were inconclusive and are not listed. The call rests on the fitted dose curve; in most records, active means well fitted inhibition curve with a large enough effect in the signal ratio, with a control signal flat (not every such curve was filed as active); inconclusive means small, poorly fitted or top-dose-only effect, or effect the other way, or a change in a side signal; inactive means flat fitted curve, though single readings scatter; the % refers to the signal ratio. Shown is part of a subset that was picked to be rich in actives.
Choose one outcome from this list and give only that: active, inactive

For orientation, consider the following solved cases.
COMPOUND	CLASS_ASSIGNMENT
Cn1cc(Br)c(NS(=O)(=O)c2ccc(Cl)s2)n1	inactive
Cc1cccc(-n2ncc3c2CCCC3NC(=O)CCN2CCCCO2)c1C (configuration not stated)	inactive
O=C(CCCSc1ccc(Cl)cc1)Nc1cc(S(=O)(=O)N2CCOCC2)ccc1O	inactive

**Query** Please let me know the test result on file for NNC(=O)c1cc(C2CC2)nc2ccc(Br)cc12 .
**Result** inactive

**Query** Which outcome was entered for the compound CC(=O)NCCc1ccc(S(=O)(=O)Nc2ccc(C)c(S(=O)(=O)N3CCOCC3)c2)cc1 in this test?
**Result** inactive

**Query** Could you kindly confirm the outcome this assay logged for CCOC(=O)C(NC(C)=O)(Nc1cccc(F)c1)C(F)(F)F (configuration not stated) ?
**Result** active

**Query** Test call for this compound, please: COc1ccc(Cc2nc3ccc(C(=O)NCc4cc(C)no4)cc3o2)cc1OC
**Result** inactive

* * *

ASSAY_COMMENT: qHTS Assay for Lipid Storage Modulators in Drosophila S3 Cells;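 as to cell number change: cells counted by Cell Tracker Red CMTPX staining in the red channel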
APPLIED_CONDITIONS: BODIPY lipid droplet fluorescence, 18-24 h, cells fed with added oleic acid; measured here: cell count max response
Screen size: about 320,000 compounds; about 2,100 (0.66%) were called active. Not shown: some 53% with an inconclusive outcome. The list comes from a sample in which actives are over-represented; it also holds close analogues and randomly drawn compounds.
ATTRIBUTE_MEASURED: cell number change (%)
Reply with just the number (in %).

// solved cases for cell number change follow
COMPOUND	cell number change, %
Cc1ccc(S(=O)(=O)CC2CSc3nc(N)cc(=O)n32)cc1 (stereo unspecified)	2.18
CCNC(=O)CN(CCc1ccccc1)S(C)(=O)=O	-1.75
COc1ccc(C(C)(C)C)cc1NC(=O)c1cc(S(=O)(=O)N(C)C)ccc1N1CCCC1	-23.6
CC1(C)COCN1C(=O)c1ccc(C#N)cc1	5.63
O=C(CS(=O)CC(=O)N(CC(=O)NC1CCCC1)c1ccc2c(c1)OCCO2)Nc1ccc(F)cc1 (stereo unspecified)	11.4

Proceeding to the next compound to report its cell number change.
**Query** For the compound CC1(C)CSC(=NCCc2ccccc2)N1C(=O)c1ccc(C#N)cc1 , report cell number change.
**Result** -0.734
